The values you see were collected from patent US20250092065A1.

System: HTT
Experiment: HiBiT protein abundance assay, HTT (K562 HiBiT knock-in)
Type: cell-based, human
Details: HiBiT knock-in K562 cells, 24 hours, top dose 10 μM
Exercise: for every item that follows, state its recorded IC50.

Looking up Cn1cc2cc(-c3ccc4nc(N5CC[C@H](NC6CC(F)(F)C6)C5)ccc4n3)c(O)cc2n1 [Compound 384] , I see its IC50 listed as 1000 to 10000 nM

Looking up Cc1c(O)c(-c2ccc3nc(N4CC[C@H](NC5CCC5)C4)ccc3n2)cc2cn(C)nc12 (single isomer, unassigned) [Compound 290] , I see its IC50 listed as < 100 nM

Looking up Cc1c(O)c(-c2nc(-c3nnc[nH]3)c3cc(N4CCNCC4)ccc3n2)cc2cn(C)nc12 [Compound 522] , I see its IC50 listed as 1000 to 10000 nM

Looking up Cn1cc2cc(-c3ccc4nc(C5CCNC[C@H]5O)ccc4n3)c(O)cc2n1 (single isomer, unassigned) [Compound 386] , I see its IC50 listed as 1000 to 10000 nM

Looking up CNC(=O)c1nc(-c2cc3cn(C)nc3c(F)c2O)nc2ccc(N3CCC(N4CCC4)CC3)cc12 [Compound 722] , I see its IC50 listed as < 100 nM

Looking up Cn1cc2cc(-c3ccc4nc(C5CCNC6(CC6)C5)ncc4n3)c(O)cc2n1 (stereo not drawn) [Compound 448] , I see its IC50 listed as 100 to 1000 nM

Looking up Cc1nc2cc(O)c(-c3ccc4nc(N5CCC(NC(C)(C)C)C5)ccc4n3)cc2o1 (stereo not drawn) [Compound 175] , I see its IC50 listed as < 100 nM

Looking up Cn1cc2cc(-c3ccc4nc(N5CCNCC5)ccc4n3)c(O)cc2n1 [Compound 136] , I see its IC50 listed as 100 to 1000 nM

Looking up Cn1cc2cc(-c3ccc4nc(N5CC[C@@H](NC6(CF)CC6)C5)ccc4n3)c(O)cc2n1 [Compound 354] , I see its IC50 listed as < 100 nM

Looking up CC(C)NC1CCN(c2ccc3nc(-c4cc5cn(C)nc5c(F)c4O)ccc3n2)C1 (stereo not drawn) [Compound 388] , I see its IC50 listed as < 100 nM

Looking up Cn1cc2cc(-c3ccc4nc(N5CCC(NC(C)(C)C)C5)ncc4n3)c(O)cc2n1 (stereo not drawn) [Compound 404] , I see its IC50 listed as < 100 nM

Looking up CCNC(=O)c1nc(-c2cc3cn(C)nc3c(C)c2O)nc2ccc(N3CCNCC3)cc12 [Compound 503] , I see its IC50 listed as < 100 nM

Looking up Cn1cc2cc(-c3ccc4nc(N5CC[C@@H](NC(C)(C)C)C5)ccc4n3)c(O)cc2n1 [Compound 153] , I see its IC50 listed as < 100 nM

Looking up Cn1cc2cc(-c3ccc4nc(N5CC(NC(C)(C)C)C5)ccc4n3)c(O)cc2n1 [Compound 165] , I see its IC50 listed as 1000 to 10000 nM

Looking up CNC(=O)c1nc(-c2cc3cn(C)nc3c(F)c2O)nc2ccc(N3C[C@@H](C)N[C@H](C)C3)cc12 (single isomer, unassigned) [Compound 668] , I see its IC50 listed as 100 to 1000 nM
